All values here come from paper PMC11801715.

# pEC50 per entry
- MEASUREMENT TARGET: PKC-δ (Homo sapiens, UniProt Q05655)
- Sequence (Q05655 whole entry, canonical isoform): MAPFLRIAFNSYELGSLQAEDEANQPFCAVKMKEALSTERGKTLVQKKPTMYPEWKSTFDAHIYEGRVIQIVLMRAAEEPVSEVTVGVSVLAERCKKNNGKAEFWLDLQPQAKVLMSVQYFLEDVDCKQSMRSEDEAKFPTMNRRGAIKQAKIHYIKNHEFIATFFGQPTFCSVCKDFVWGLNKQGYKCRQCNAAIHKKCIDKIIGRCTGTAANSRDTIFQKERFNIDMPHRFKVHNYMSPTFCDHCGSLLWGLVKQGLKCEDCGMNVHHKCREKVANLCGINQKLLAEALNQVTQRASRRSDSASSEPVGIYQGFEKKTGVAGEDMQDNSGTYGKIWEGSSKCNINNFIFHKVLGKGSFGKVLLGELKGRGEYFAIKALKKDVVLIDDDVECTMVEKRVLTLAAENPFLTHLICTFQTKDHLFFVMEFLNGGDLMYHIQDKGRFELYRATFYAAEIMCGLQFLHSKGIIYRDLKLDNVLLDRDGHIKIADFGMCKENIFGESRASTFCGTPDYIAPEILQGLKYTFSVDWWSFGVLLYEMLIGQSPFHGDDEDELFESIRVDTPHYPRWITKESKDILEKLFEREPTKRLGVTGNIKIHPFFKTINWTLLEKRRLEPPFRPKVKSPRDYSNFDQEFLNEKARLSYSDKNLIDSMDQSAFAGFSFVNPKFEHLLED
- TEST DETAILS: PKC isoform translocation in A549-tGFP cells
- Format: cell-based
- Design: host or cells: A549
- ASSAY SETUP: A549-tGFP cells, 60 minutes; read-out: EC50 for PKC-δ translocation
Remember, pEC50 is on a log scale: it is -log10 of the molar concentration.

COMPOUND | MEASUREMENT TARGET | TEST READOUT | VALUE MEASURED
Cc1ccc(C#Cc2ccc(C(=O)OCC3(CO)Cc4c(-c5ccccc5)ccnc4O3)cc2)cc1 (centres unmarked) | PKC-δ (Homo sapiens, UniProt Q05655) | pEC50 | 4.33

For the next question, use this compound.
### Prompt Give pEC50 (PKC-δ (Homo sapiens, UniProt Q05655)) of the following compound: CC(C)=C1CC(CO)(COC(=O)c2ccc(C#Cc3ccc(C)cc3)cc2)OC1=O (centres unmarked)
### Response 5.39

###

- MEASUREMENT TARGET: PKC-α (Homo sapiens, UniProt P17252)
- TEST DETAILS: PKC isoform translocation in A549-tGFP cells
- Assay type: cell-based
- Design: host or cells: A549
TEST READOUT: EC50

### Prompt Which measured EC50 value corresponds to CC(C)CC(C/C=C1\CC(CO)(COC(=O)C(C)(C)C)OC1=O)CC(C)C (stereo not shown) [AJH-863, reference compound] ?
### Response > 50 µM

###

- MEASUREMENT TARGET: PKC-δ (Homo sapiens)
- TEST DETAILS: PKC isoform translocation in A549-tGFP cells
- Format: cell-based
- Parameters: host or cells: A549
- ASSAY SETUP: EC50 for PKC-δ translocation
TEST READOUT: EC50 (nM)
Please reply with the bare figure in nM and do not write the unit itself.

### Prompt Give EC50 (PKC-δ (Homo sapiens)) of the following compound: CC(C)CC(C/C=C1\CC(CO)(COC(=O)C(C)(C)C)OC1=O)CC(C)C (stereo not shown) [AJH-863, reference compound]
### Response 2320

###

- MEASUREMENT TARGET: UniProtKB P24723
- Sequence (P24723 whole entry, canonical isoform): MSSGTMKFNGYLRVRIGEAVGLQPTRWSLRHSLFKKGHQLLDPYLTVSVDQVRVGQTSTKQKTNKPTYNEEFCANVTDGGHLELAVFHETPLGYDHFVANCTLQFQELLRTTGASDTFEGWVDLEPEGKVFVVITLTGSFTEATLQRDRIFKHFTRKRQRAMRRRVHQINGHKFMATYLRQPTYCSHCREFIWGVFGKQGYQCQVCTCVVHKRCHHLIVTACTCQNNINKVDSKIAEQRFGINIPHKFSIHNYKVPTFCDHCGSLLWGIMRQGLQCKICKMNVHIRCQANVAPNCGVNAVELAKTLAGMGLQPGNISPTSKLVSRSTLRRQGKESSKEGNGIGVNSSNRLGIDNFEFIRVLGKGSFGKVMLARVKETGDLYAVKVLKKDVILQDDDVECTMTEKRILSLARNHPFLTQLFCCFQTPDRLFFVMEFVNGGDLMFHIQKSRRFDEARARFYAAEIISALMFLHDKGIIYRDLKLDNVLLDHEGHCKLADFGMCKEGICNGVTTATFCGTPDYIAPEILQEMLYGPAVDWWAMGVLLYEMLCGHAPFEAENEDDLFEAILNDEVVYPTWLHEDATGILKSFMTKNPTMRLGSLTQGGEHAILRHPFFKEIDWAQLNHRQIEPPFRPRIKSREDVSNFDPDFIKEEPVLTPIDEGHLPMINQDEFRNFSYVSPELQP
- TEST DETAILS: PKC isoform translocation in A549-tGFP cells
- ASSAY SETUP: A549-tGFP cells, 60 minutes
TEST READOUT: EC50 (nM)
Please reply with the bare figure in nM and do not write the unit itself.

COMPOUND | EC50 (nM)
CC(C)CC(C/C=C1\CC(CO)(COC(=O)C(C)(C)C)OC1=O)CC(C)C (stereo not shown) [AJH-863, reference compound] | 1890
CC(C)=C1CC(CO)(COC(=O)c2ccc(C#Cc3ccc(C)cc3)cc2)OC1=O (stereo not shown) [Comin compound 2] | 1190
Cc1ccc(C#Cc2ccc(C(=O)OCC3(CO)Cc4c(-c5ccccc5)ccnc4O3)cc2)cc1 (stereo not shown) [C-233] | 1100

For the next question, use this compound.
### Prompt Which measured EC50 value corresponds to Cc1ccc(C#Cc2ccc3oc(CC(C)(C)C(=O)OCC4(CO)CC(=CCC(CC(C)C)CC(C)C)C(=O)O4)cc3c2)cc1 (stereo not shown) [C-232A] ?
### Response 100
